system: Bacteria; assay: Michaelis-Menten constant for bacterial Carboxypeptidase
measurement_kind: log10 of Km (log10 of the value in µM)

> print(dat)
                                smiles.text  value.reported
1  CS(=O)(=O)OCCN(CCCl)c1ccc(C(=O)N[C@@H](CCC(=O)O)C(=O)O)cc1            0.53
2  O=C(O)CC[C@H](NC(=O)Oc1ccc(N(CCCl)CCCl)cc1)C(=O)O            0.00
3  O=C(O)CC[C@H](NC(=O)Sc1ccc(N(CCCl)CCCl)cc1)C(=O)O            1.70
4  O=C(O)CC[C@H](NC(=O)Cc1ccc(N(CCCl)CCCl)cc1)C(=O)O            1.20
5  O=C(O)CC[C@H](NC(=O)c1ccc(N(CCCl)CCCl)cc1)C(=O)O            0.53
6  O=C(O)CC[C@H](NC(=O)Nc1ccc(N(CCCl)CCCl)cc1)C(=O)O            0.48

###

The reader will find reported k cat values listed item by item below.
system: Bacteria; assay: Catalytic rate constant for bacterial Carboxypeptidase
measurement_kind: k cat (s⁻¹)

> print(dat)
                                smiles.text  measurement.kind  readout.unit  value.reported
1  O=C(O)CC[C@H](NC(=O)Sc1ccc(N(CCCl)CCCl)cc1)C(=O)O             k cat           s⁻¹               4
2  O=C(O)CC[C@H](NC(=O)Nc1ccc(N(CCCl)CCCl)cc1)C(=O)O             k cat           s⁻¹             7.5
3  O=C(O)CC[C@H](NC(=O)Oc1ccc(N(CCCl)CCCl)cc1)C(=O)O             k cat           s⁻¹              49
4  O=C(O)CC[C@H](NC(=O)Cc1ccc(N(CCCl)CCCl)cc1)C(=O)O             k cat           s⁻¹              15
5  CS(=O)(=O)OCCN(CCCl)c1ccc(C(=O)N[C@@H](CCC(=O)O)C(=O)O)cc1             k cat           s⁻¹             583
6  O=C(O)CC[C@H](NC(=O)c1ccc(N(CCCl)CCCl)cc1)C(=O)O             k cat           s⁻¹             700
